Where do these numbers come from? They come from PubChem BioAssay AID1963971.

Below: a set of entries, each annotated with reported viability, T/C.
- Tested on: 953936-095-R-J2-PDC spheroids with HUVEC/MSC, viability
- METHOD_NOTES: Anticancer human tumor 953936-095-R-J2-PDC patient-derived cervical squamous cell carcinoma cell line growth inhibition [PI3K]
- ASSAY_SETUP: second compound 0.0316 µM; first compound 0.03 µM; stronger effect = lower value

Fill in the blank: the reported viability, T/C of Cn1cnc2c(F)c(Nc3ccc(Br)cc3Cl)c(C(=O)NOCCO)cc21 + CC(Nc1ccc2c(c1)OCCn1cc(N3C(=O)OCC3C(F)F)nc1-2)C(N)=O is ____.
56.6%

* * *

- Tested on: 953936-095-R-J2-PDC spheroids with HUVEC/MSC, viability
- METHOD_NOTES: Anticancer human tumor 953936-095-R-J2-PDC cell line growth inhibition [PI3K]; active = viability on the fitted dose curve at most 10% of control; inactive = the rest;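 further: spheroids exposed to compounds for seven days before read-out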
- ASSAY_SETUP: second compound 3.16 µM; first compound 3.16 µM
Your reply should match one of these outcome classes. t = active, f = inactive

CCCS(=O)(=O)Nc1ccc(F)c(C(=O)c2c[nH]c3ncc(-c4ccc(Cl)cc4)cc23)c1F + Cc1nc(NC(=O)N2CCCC2C(N)=O)sc1-c1ccnc(C(C)(C)C(F)(F)F)c1
f
CC(C)NCC(C(=O)N1CCN(c2ncnc3c2C(C)CC3O)CC1)c1ccc(Cl)cc1 (stereo not given) + CC(Nc1ncnc2nc[nH]c12)c1cc2cccc(Cl)c2c(=O)n1-c1ccccc1
f
CC1(C)CCC(CN2CCN(c3ccc(C(=O)NS(=O)(=O)c4ccc(NCC5CCOCC5)c([N+](=O)[O-])c4)c(Oc4cnc5[nH]ccc5c4)c3)CC2)=C(c2ccc(Cl)cc2)C1 + CC(Nc1ncnc2nc[nH]c12)c1cc2cccc(Cl)c2c(=O)n1-c1ccccc1
f
C=CC(=O)N1CCN(c2nc(=O)n(-c3c(C)ccnc3C(C)C)c3nc(-c4c(O)cccc4F)c(F)cc23)C(C)C1 (stereo not given) + CC(Nc1ncnc2nc[nH]c12)c1cc2cccc(Cl)c2c(=O)n1-c1ccccc1
f

Turning now to a further molecule:
Returns: the outcome recorded for Cn1ncc(Cl)c1-c1cc(C(=O)NC(CN)Cc2cccc(F)c2)sc1Cl (stereo not given) + Cc1nc(NC(=O)N2CCCC2C(N)=O)sc1-c1ccnc(C(C)(C)C(F)(F)F)c1 in this assay.
t

* * *

Entries and their measured viability, T/C follow.
- Test system: 953936-095-R-J2-PDC spheroids with HUVEC/MSC, viability
- METHOD_NOTES: Anticancer human tumor 953936-095-R-J2-PDC cell line growth inhibition [PI3K];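 further: spheroids exposed to compounds for seven days before read-out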
- ASSAY_SETUP: second compound 0.0316 µM; first compound 10 µM; stronger effect = lower value
- Excerpt: Combinatorial screen of targeted agents with the PI3K inhibitors inavolisib, alpelisib, duvelisib, and copanlisib in multi-cell type tumor spheroids A high-throughput screen of multi-cell type tumor spheroids was designed to identify active combinations of targeted small molecules and PI3K pathway inhibitors. […] Compounds. […] If the clinical Cmax for an agent had not been determined, the highest concentration tested was 10 microM. […]
Write down the numeric answer in % and omit the unit.

CC1(C)CCC(Nc2ncc(C(F)(F)F)c(-c3c[nH]c4c(P(C)(C)=O)c(C#N)ccc34)n2)CN1 (stereo not given) + CC(Nc1ncnc2nc[nH]c12)c1cc2cccc(Cl)c2c(=O)n1-c1ccccc1
7.92
CCCS(=O)(=O)Nc1ccc(F)c(C(=O)c2c[nH]c3ncc(-c4ccc(Cl)cc4)cc23)c1F + Cc1nc(NC(=O)N2CCCC2C(N)=O)sc1-c1ccnc(C(C)(C)C(F)(F)F)c1
0.75
Cn1ncc(Cl)c1-c1cc(C(=O)NC(CN)Cc2cccc(F)c2)sc1Cl (stereo not given) + COc1c(OCCCN2CCOCC2)ccc2c3n(c(=NC(=O)c4cnc(N)nc4)nc12)CCN3
4.58
C#Cc1c(F)ccc2cc(O)cc(-c3ncc4c(N5CC6CCC(C5)N6)nc(OCC56CCCN5CC(F)C6)nc4c3F)c12 (stereo not given) + Cc1nc(NC(=O)N2CCCC2C(N)=O)sc1-c1ccnc(C(C)(C)C(F)(F)F)c1
67.9

Attention now shifts to the item below.
Please report the recorded viability, T/C for CC1(C)CCC(CN2CCN(c3ccc(C(=O)NS(=O)(=O)c4ccc(NCC5CCOCC5)c([N+](=O)[O-])c4)c(Oc4cnc5[nH]ccc5c4)c3)CC2)=C(c2ccc(Cl)cc2)C1 + COc1c(OCCCN2CCOCC2)ccc2c3n(c(=NC(=O)c4cnc(N)nc4)nc12)CCN3 .
21.6
